Target: T1, human interleukin 13 receptor alpha 2 (IL-13Rα2), biotinylated (human, UniProt Q14627 27-343, limits assumed, biotinylated (site not stated))
T1 construct: The methods give construct limits only for IL-13Rα1 and IL-4Rα1; For IL-13Rα2 they say only that the biotinylated receptor was captured on the SA chip; also called IL13RA2; CD213a2
T1 sequence (looked up): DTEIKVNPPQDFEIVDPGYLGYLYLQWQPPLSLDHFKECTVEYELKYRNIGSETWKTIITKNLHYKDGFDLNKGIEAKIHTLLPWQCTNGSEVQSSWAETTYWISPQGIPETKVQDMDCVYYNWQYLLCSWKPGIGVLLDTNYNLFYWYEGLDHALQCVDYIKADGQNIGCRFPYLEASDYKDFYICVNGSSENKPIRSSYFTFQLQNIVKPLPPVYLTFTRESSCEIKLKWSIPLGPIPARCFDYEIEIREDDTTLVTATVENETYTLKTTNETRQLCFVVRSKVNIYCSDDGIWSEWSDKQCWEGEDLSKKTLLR
Assay: SPR (Biacore T100), biotinylated receptor on SA chip, 1:1 kinetic fit
The following binders are shown together with reported kon values.
Give just the number in M⁻¹ s⁻¹; leave the unit off.

| binder | unit_abbrev | obs_value |
| --- | --- | --- |
| A11 (ligand, also called IL-13 variant A11 (L10V, V18I, D87S, T88S, L101F, K104R, K105T)) cytokine: PGPVPPSTAVRELIEELINITQNQKAPLCNGSMVWSINLTAGMYCAALESLINVSGCSAIEKTQRMLSGFCPHKVSAGQFSSLHVRSSKIEVAQFVKDLLFHLRTLFREGQFN | M⁻¹ s⁻¹ | 1.62e+07 |
| IL-13 variant C4 (L10V, K89R, L101N, K105E, R108T) (ligand, the first is used here; also called polypeptide C4) PGPVPPSTAVRELIEELVNITQNQKAPLCNGSMVWSINLTAGMYCAALESLINVSGCSAIEKTQRMLSGFCPHKVSAGQFSSLHVRDTRIEVAQFVKDLLNHLKELFTEGQFNHHHHHH | M⁻¹ s⁻¹ | 1.94e+06 |
| IL-13 variant D7 (IL-13Rα2-selective IL-13 superkine; L10A, V18F, R86K, D87K, K89R, L101I, K104R, R108K) (ligand, the first is used here; also called polypeptide D7) PGPVPPSTAARELIEELFNITQNQKAPLCNGSMVWSINLTAGMYCAALESLINVSGCSAIEKTKRMLSGFCPHKVSAGQFPSLHVKKTRIEVAQFVKDLLIHLRKLFKEGQFNHHHHHH | M⁻¹ s⁻¹ | 1.77e+07 |
| A8 (ligand, also called IL-13 variant A8 (L10I, V18I, D87S, T88S, K89R, L101H, K104R, K105T)) cytokine: PGPVPPSTAIRELIEELINITQNQKAPLCNGSMVWSINLTAGMYCAALESLINVSGCSAIEKTQRMLSGFCPHKVSAGQFSSLHVRSSRIEVAQFVKDLLHHLRTLFREGQFN | M⁻¹ s⁻¹ | 1.01e+07 |
| A6 (ligand, also called IL-13 variant A6 (L10I, V18L, R86M, D87K, T88S, L101H, K104R, K105A)) cytokine: PGPVPPSTAIRELIEELLNITQNQKAPLCNGSMVWSINLTAGMYCAALESLINVSGCSAIEKTQRMLSGFCPHKVSAGQFSSLHVMKSKIEVAQFVKDLLHHLRALFREGQFN | M⁻¹ s⁻¹ | 1.07e+07 |
| A7 (ligand, also called IL-13 variant A7 (L10I, V18I, D87G, T88S, L101H, K104R, K105A)) cytokine: PGPVPPSTAIRELIEELINITQNQKAPLCNGSMVWSINLTAGMYCAALESLINVSGCSAIEKTQRMLSGFCPHKVSAGQFSSLHVRGSKIEVAQFVKDLLHHLRALFREGQFN | M⁻¹ s⁻¹ | 1.8e+07 |
| C3 (ligand, also called IL-13 variant C3 (L10A, R86T, D87G, T88K, K89R, L101N, K104R, K105A, R108K)) cytokine: PGPVPPSTAARELIEELVNITQNQKAPLCNGSMVWSINLTAGMYCAALESLINVSGCSAIEKTQRMLSGFCPHKVSAGQFSSLHVTGKRIEVAQFVKDLLNHLRALFKEGQFN | M⁻¹ s⁻¹ | 6e+06 |
| C7 (ligand, also called IL-13 variant C7 (R11S, I14M, T88S, L101N, K105A, R108K)) cytokine: PGPVPPSTALSELMEELVNITQNQKAPLCNGSMVWSINLTAGMYCAALESLINVSGCSAIEKTQRMLSGFCPHKVSAGQFSSLHVRDSKIEVAQFVKDLLNHLKALFKEGQFN | M⁻¹ s⁻¹ | 2.1e+06 |
| IL-13 variant C11 (IL-13Rα2-selective IL-13 superkine; L10H, R86T, D87G, T88R, R108K) (ligand, the first is used here; Made in insect Hi5 cells; also called polypeptide C11) PGPVPPSTAHRELIEELVNITQNQKAPLCNGSMVWSINLTAGMYCAALESLINVSGCSAIEKTQRMLSGFCPHKVSAGQFSSLHVTGRKIEVAQFVKDLLLHLKKLFKEGQFNHHHHHH | M⁻¹ s⁻¹ | 6.41e+06 |
| C12 (ligand, also called IL-13 variant C12 (L10H, R86M, T88S, K89R, L101N, K104R, K105A, R108K)) cytokine: PGPVPPSTAHRELIEELVNITQNQKAPLCNGSMVWSINLTAGMYCAALESLINVSGCSAIEKTQRMLSGFCPHKVSAGQFSSLHVMDSRIEVAQFVKDLLNHLRALFKEGQFN | M⁻¹ s⁻¹ | 7.61e+06 |

get_value(item= C9 (ligand, also called IL-13 variant C9 (L10H, R11L, V18I, R86K, D87E, K89R, L101N, K105T, R108K)) cytokine: PGPVPPSTAHLELIEELINITQNQKAPLCNGSMVWSINLTAGMYCAALESLINVSGCSAIEKTQRMLSGFCPHKVSAGQFSSLHVKETRIEVAQFVKDLLNHLKTLFKEGQFN , readout=kon) returns 2.03e+06

get_value(item= C2 (ligand, also called IL-13 variant C2 (L10D, R11I, V18I, R86K, D87K, K89R, R108K)) cytokine: PGPVPPSTADIELIEELINITQNQKAPLCNGSMVWSINLTAGMYCAALESLINVSGCSAIEKTQRMLSGFCPHKVSAGQFSSLHVKKTRIEVAQFVKDLLLHLKKLFKEGQFN , readout=kon) returns 6.6e+06
